test system: ACHN renal; assay: NCI tumour cell line growth inhibition, 48 h
ASSAY METRIC: TGI (µM)

[
  {
    "COMPOUND": "CCN(CC)CCCC(C)Nc1c2ccc(Cl)cc2nc2ccc(O)cc12 (configuration not stated)",
    "UNIT OF MEASURE": "µM",
    "SIGN": "=",
    "REPORTED VALUE": 2.81
  },
  {
    "COMPOUND": "O=C1CSSCC(=O)Nc2ccccc2N1",
    "UNIT OF MEASURE": "µM",
    "SIGN": ">",
    "REPORTED VALUE": 100
  },
  {
    "COMPOUND": "O=S(=O)(NC1=NCCN1C(=S)SN1CCn2c1nsc2=S)c1cccc(Cl)c1",
    "UNIT OF MEASURE": "µM",
    "SIGN": "=",
    "REPORTED VALUE": 30.6
  },
  {
    "COMPOUND": "O=C(CCc1nnc2sc(-c3ccc(Cl)cc3Cl)nn12)c1nc2ccccc2[nH]1",
    "UNIT OF MEASURE": "µM",
    "SIGN": "=",
    "REPORTED VALUE": 1.29
  },
  {
    "COMPOUND": "Cc1ccc(C(=O)N(CCCN)C(c2oc3cc(Cl)ccc3c(=O)c2Cc2ccccc2)C(C)C)cc1 (configuration not stated)",
    "UNIT OF MEASURE": "µM",
    "SIGN": "=",
    "REPORTED VALUE": 2.39
  },
  {
    "COMPOUND": "CCOC(=O)/C(C#N)=C/c1[nH]c(C(=O)OCc2ccccc2)c(C)c1C",
    "UNIT OF MEASURE": "µM",
    "SIGN": ">",
    "REPORTED VALUE": 100
  },
  {
    "COMPOUND": "COc1cc2ncn(-c3cc(OCc4cccs4)c(C(N)=O)s3)c2cc1OC",
    "UNIT OF MEASURE": "µM",
    "SIGN": ">",
    "REPORTED VALUE": 25
  },
  {
    "COMPOUND": "COc1ccc2c(c1)C(=O)Cc1ccccc1CC2",
    "UNIT OF MEASURE": "µM",
    "SIGN": ">",
    "REPORTED VALUE": 100
  },
  {
    "COMPOUND": "CC1(C)C2CCC(CN)(C2)C1N (configuration not stated)",
    "UNIT OF MEASURE": "µM",
    "SIGN": ">",
    "REPORTED VALUE": 100
  },
  {
    "COMPOUND": "CCCCCCCC[C@@H](O)CC(=O)N[C@@H](CC(N)=O)C(=O)N[C@@H](CCC(N)=O)C(=O)N[C@@H](CC(=O)c1cc(C)cc(O)c1C(=O)c1c(O)cccc1O)CC(C)C",
    "UNIT OF MEASURE": "µM",
    "SIGN": ">",
    "REPORTED VALUE": 100
  },
  {
    "COMPOUND": "O=C(Cn1c2c(c3ccccc31)CCCC2)N1CCCC1",
    "UNIT OF MEASURE": "µM",
    "SIGN": ">",
    "REPORTED VALUE": 100
  },
  {
    "COMPOUND": "C[N+]1=C(/C=C/c2ccc(O)c3ncccc23)C(C)(C)c2ccccc21",
    "UNIT OF MEASURE": "µM",
    "SIGN": "=",
    "REPORTED VALUE": 7.03
  },
  {
    "COMPOUND": "O=C(O)c1ccccc1/C=N/NC1=NCCN1",
    "UNIT OF MEASURE": "µM",
    "SIGN": ">",
    "REPORTED VALUE": 100
  },
  {
    "COMPOUND": "O=C(Nc1ccc(-c2nc(N3CCOCC3)c3cccn3n2)cc1)Nc1cccnc1",
    "UNIT OF MEASURE": "µM",
    "SIGN": "=",
    "REPORTED VALUE": 3.64
  },
  {
    "COMPOUND": "CC/C=C\\C[C@H](F)C/C=C1/C(=O)C=C[C@@H]1C/C=C\\CCCC(=O)O",
    "UNIT OF MEASURE": "µM",
    "SIGN": "=",
    "REPORTED VALUE": 9.85
  },
  {
    "COMPOUND": "NC(=O)COC(=O)c1c(Cl)nc2sccn12",
    "UNIT OF MEASURE": "µM",
    "SIGN": ">",
    "REPORTED VALUE": 100
  },
  {
    "COMPOUND": "O=C(O)c1nn(-c2ccccc2-c2n[nH]c(=O)[nH]c2=O)c(=O)[nH]c1=O",
    "UNIT OF MEASURE": "µM",
    "SIGN": ">",
    "REPORTED VALUE": 100
  },
  {
    "COMPOUND": "NC1=NC(c2ccccc2)CC(c2cc(Cl)ccc2O)=N1 (configuration not stated)",
    "UNIT OF MEASURE": "µM",
    "SIGN": "=",
    "REPORTED VALUE": 29.4
  },
  {
    "COMPOUND": "CCOC(=O)c1oc2cc3c(c4c2c1-c1ccccc1N4C)C=CC(C)(C)O3",
    "UNIT OF MEASURE": "µM",
    "SIGN": "=",
    "REPORTED VALUE": 30.5
  },
  {
    "COMPOUND": "COC(=O)c1cc(C)ccc1C1CN=NC12Cc1ccc(C)cc1C2=O (configuration not stated)",
    "UNIT OF MEASURE": "µM",
    "SIGN": ">",
    "REPORTED VALUE": 100
  },
  {
    "COMPOUND": "Cc1c(C)c(C)n(C2OC(CO)C(O)C(O)C2O)c(=S)c1C#N (configuration not stated)",
    "UNIT OF MEASURE": "µM",
    "SIGN": ">",
    "REPORTED VALUE": 100
  },
  {
    "COMPOUND": "O=c1oc2ccccc2cc1-c1csc(Nc2ccc(F)cc2)n1",
    "UNIT OF MEASURE": "µM",
    "SIGN": "=",
    "REPORTED VALUE": 26.3
  },
  {
    "COMPOUND": "OC1(c2ccccc2)C2CCN(CC2)C1CN1CCOCC1 (configuration not stated)",
    "UNIT OF MEASURE": "µM",
    "SIGN": ">",
    "REPORTED VALUE": 100
  },
  {
    "COMPOUND": "CN1CCN(c2ccc3[nH]c(-c4cc(O)c5c(nc(CO)n5C)c4O)nc3n2)CC1",
    "UNIT OF MEASURE": "µM",
    "SIGN": ">",
    "REPORTED VALUE": 100
  },
  {
    "COMPOUND": "Cc1ccc2c(c1)Sc1c(ccc3ccccc13)N2",
    "UNIT OF MEASURE": "µM",
    "SIGN": ">",
    "REPORTED VALUE": 100
  },
  {
    "COMPOUND": "O=C1N=C(SC2OC(CO)C(O)C(O)C2O)S/C1=C\\c1ccccc1 (configuration not stated)",
    "UNIT OF MEASURE": "µM",
    "SIGN": ">",
    "REPORTED VALUE": 100
  },
  {
    "COMPOUND": "Cc1cc(-c2cnn3c(NCC4CC(C)(O)C4)cc(Oc4cccnc4)nc23)ccc1C(=O)NC1CC1 (configuration not stated)",
    "UNIT OF MEASURE": "µM",
    "SIGN": ">",
    "REPORTED VALUE": 100
  },
  {
    "COMPOUND": "CCCCCCCC(=O)OCC/C=C/C1OC1C1OC(=O)/C=C\\C=C\\c2nc(oc2C)/C=C(/C)CCC2OC2C1OC(=O)NC(C)=O (configuration not stated)",
    "UNIT OF MEASURE": "µM",
    "SIGN": "=",
    "REPORTED VALUE": 0.933
  },
  {
    "COMPOUND": "C/C(O)=C(\\N=O)C(=O)Nc1ccc(Cl)cc1Cl",
    "UNIT OF MEASURE": "µM",
    "SIGN": ">",
    "REPORTED VALUE": 100
  },
  {
    "COMPOUND": "O=C1c2[nH]c3ccc(Br)cc3c2CCN1Cc1ccc(Cl)cc1",
    "UNIT OF MEASURE": "µM",
    "SIGN": "=",
    "REPORTED VALUE": 22.7
  },
  {
    "COMPOUND": "CCC/C=C/c1cc2c(cc1O)CC[C@@H]1[C@@H]2CC[C@]2(C)[C@@H](O)CC[C@@H]12",
    "UNIT OF MEASURE": "µM",
    "SIGN": "=",
    "REPORTED VALUE": 34.2
  },
  {
    "COMPOUND": "CC1(C)OC2=C(CC1Br)C(=O)C(=O)c1ccccc12 (configuration not stated)",
    "UNIT OF MEASURE": "µM",
    "SIGN": "=",
    "REPORTED VALUE": 3.84
  }
]
